Please respond with reported viability, T/C for every item in the list.
Tested on: 422866-222-R5-J1-PDC complex spheroid viability
Assay: Anticancer human tumor 422866-222-R5-J1-PDC patient-derived pancreatic adenocarcinoma cell line growth inhibition [POLQ]
Conditions: second compound 0.0316 µM; first compound 1 µM; stronger effect = lower value
Method: Multicellular complex tumor spheroid response to Polymerase (POL) inhibitors (novobiocin, ART-558, RP6685) in combination with a variety of drugs and investigational agents in selected tumor cell lines The POL inhibitors (novobiocin, ART-558, and RP6685) were evaluated both individually and in combination with standard of care and investigational anticancer small molecules within a complex spheroid model of solid tumors. . […]
The reply should contain only the number, in %.

Query: Looking for the measured viability, T/C of O=C(Nc1ccc(O)c(NS(=O)(=O)c2ccc(F)cc2)c1)c1ccc(-c2ccccc2)cc1 + COC1C(OC(N)=O)C(O)C(Oc2ccc3c(O)c(NC(=O)c4ccc(O)c(CC=C(C)C)c4)c(=O)oc3c2C)OC1(C)C , can you help?
Result: 94.6

Query: Now consider O=c1[nH]cc(F)c(=O)[nH]1 + Nc1ccc(C#CCN(C(=O)Cc2ncc(C(F)(F)F)cc2C(F)(F)F)c2ccc(F)cc2)nn1 .
Result: 88.2

Query: C=CCn1c(=O)c2cnc(Nc3ccc(N4CCN(C)CC4)cc3)nc2n1-c1cccc(C(C)(C)O)n1 + Nc1ccc(C#CCN(C(=O)Cc2ncc(C(F)(F)F)cc2C(F)(F)F)c2ccc(F)cc2)nn1 ?
Result: 33.7

Query: Also need CNCc1ccc(-c2[nH]c3cc(F)cc4c3c2CCNC4=O)cc1 + Nc1ccc(C#CCN(C(=O)Cc2ncc(C(F)(F)F)cc2C(F)(F)F)c2ccc(F)cc2)nn1 , thanks.
Result: 104

Query: What about this compound? COc1cc2cc(C(=O)CCC(=O)O)sc2cc1OC + COC1C(OC(N)=O)C(O)C(Oc2ccc3c(O)c(NC(=O)c4ccc(O)c(CC=C(C)C)c4)c(=O)oc3c2C)OC1(C)C
Result: 114

====

Tested on: 422866-222-R5-J1-PDC complex spheroid viability
Assay: Anticancer human tumor 422866-222-R5-J1-PDC cell line growth inhibition [POLQ];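 further: spheroids exposed to compounds for one week before readout; percent of DMSO vehicle wells luminescence so 100% = untreated viability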
Conditions: second compound 10 µM; first compound 0.1 µM; stronger effect = lower value
PROPERTY MEASURED: viability, T/C
Could you give the number and then its unit, please?

Query: What value of viability, T/C has been recorded for this entry: O=C(Nc1ccc(O)c(NS(=O)(=O)c2ccc(F)cc2)c1)c1ccc(-c2ccccc2)cc1 + COC1C(OC(N)=O)C(O)C(Oc2ccc3c(O)c(NC(=O)c4ccc(O)c(CC=C(C)C)c4)c(=O)oc3c2C)OC1(C)C
Result: 80.9%

Query: Would you mind doing Cn1ncnc1[C@H]1c2n[nH]c(=O)c3cc(F)cc(c23)N[C@@H]1c1ccc(F)cc1 + Nc1ccc(C#CCN(C(=O)Cc2ncc(C(F)(F)F)cc2C(F)(F)F)c2ccc(F)cc2)nn1 as well?
Result: 77.9%

Query: And the next one, CCc1cc2c(N3CCc4c(cc(Cn5ccnc5)cc4-c4cn(C)nc4C(F)(F)F)C3=O)ccnc2c(OC)n1 + COC1C(OC(N)=O)C(O)C(Oc2ccc3c(O)c(NC(=O)c4ccc(O)c(CC=C(C)C)c4)c(=O)oc3c2C)OC1(C)C ?
Result: 98.1%

Query: Let us now turn to COc1cccc2c1C(=O)c1c(O)c3c(c(O)c1C2=O)CC(O)(C(=O)CO)CC3OC1CC(N)C(O)C(C)O1 (stereo not drawn) + COC1C(OC(N)=O)C(O)C(Oc2ccc3c(O)c(NC(=O)c4ccc(O)c(CC=C(C)C)c4)c(=O)oc3c2C)OC1(C)C
Result: 106%

Query: Next molecule up: Nc1ccn(C2OC(CO)C(O)C2(F)F)c(=O)n1 (stereo not drawn) + Nc1ccc(C#CCN(C(=O)Cc2ncc(C(F)(F)F)cc2C(F)(F)F)c2ccc(F)cc2)nn1
Result: 67.9%

Query: Also Nc1ccn(C2OC(CO)C(O)C2(F)F)c(=O)n1 (stereo not drawn) + Cc1cccc(N(C)C(=O)C2C(O)CCN2c2nc(C)cc(C(F)(F)F)c2C#N)c1 ?
Result: 51.9%

Query: Repeat for the following molecule: CC1COCCN1c1cc(C2(O)CC3CCC(C2)O3)c2cnn(-c3ccn[nH]3)c2n1 (stereo not drawn) + COC1C(OC(N)=O)C(O)C(Oc2ccc3c(O)c(NC(=O)c4ccc(O)c(CC=C(C)C)c4)c(=O)oc3c2C)OC1(C)C
Result: 52.7%

Query: Try this molecule too: COc1cc2cc(C(=O)CCC(=O)O)sc2cc1OC + Cc1cccc(N(C)C(=O)C2C(O)CCN2c2nc(C)cc(C(F)(F)F)c2C#N)c1
Result: 93%

Each recorded value in this set is attributed to PubChem BioAssay AID1963844.
